# METHOD: NCI Yeast Anticancer Drug Screen. Data for the bub3 strain (AID 167)
# CONDITION_SUMMARY: S. cerevisiae bub3 mutant strain, at 5.0 µM (retest, dose inferred, filed as 0.5), stronger effect = higher value
The panel holds about 79,000 compounds, 15% with a hit somewhere; the sample as a whole holds those more often.
Known growth inhibition of a selection of compounds
Return type: number; implicit unit %.

Solved entries (count: 5):
C#CCn1cnc2c(N)ncnc21 | -4
CCOC(=O)C(=O)C1CCCCC1=O (centres undefined) | 6
O=[N+]([O-])C1=Cc2cc(Cl)ccc2OC1c1cccc2ccccc12 (centres undefined) | 97
CCOc1cc(C(c2ccc(N(C)C)cc2)c2ccc(N(C)C)cc2)ccc1O | 8
CN(C)c1ccc(C=Nc2ccc(OCCCCCCCCCCC(=O)O)cc2)cc1 | 73

Req: Specify reported growth inhibition for the compound shown: CC1CC(=O)OC(C(=O)c2ccccc2)N1c1ccc(C(F)(F)F)cc1N (centres undefined)
Resp: 2

Req: Specify reported growth inhibition for the compound shown: Oc1ccc2c(c1O)/C(=C/C=NCC1(O)OCC(O)C(O)C1O)C=N2 (centres undefined)
Resp: 2

Req: Specify reported growth inhibition for the compound shown: `CC(C)CCN(CCC(C)C)C(=S)Nc1ccccc1`
Resp: -7

Req: Specify reported growth inhibition for the compound shown: `Cn1c2nc(-[n+]3ccc(-c4ccccc4)cc3)nc-2c([O-])n(C)c1=O`
Resp: -1

---

# METHOD: NCI Yeast Anticancer Drug Screen. Data for the sgs1 mgt1 strain (AID 161);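 further: 0% = growth of cultures given vehicle only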
# CONDITION_SUMMARY: S. cerevisiae sgs1 mgt1 strain, at 50.0 µM (retest, dose inferred, filed as 5.0)
Compounds without any hit were thinned out: in the full panel of roughly 79,000, 15% have a hit. Active and inactive are the calls of the source. No stated cut-off is given here; in the data, active means growth inhibition above about 70%; inactive means the rest.
Tick one outcome: YES = active, NO = inactive

These solved cases illustrate the format of a correct answer.
CC1(C)CC(O)C(O)C1 (centres undefined) | NO
CCOC(=O)CC1C(=O)N(c2nc(-c3ccc(Br)cc3)cs2)N=C1C (centres undefined) | NO
COc1cc2c(cc1OC)C(=O)C(C)(c1ccccc1)NC2 (centres undefined) | NO
CCc1c(C(=O)OC)c(C(=O)OC)c(-c2ccccc2)n1CCn1c(CC)c(C(=O)OC)c(C(=O)OC)c1-c1ccccc1 | YES
C/C(=N/NC(N)=O)C1CC(CCC2([N+](=O)[O-])CCC(C)(O)C(/C(C)=N\NC(N)=O)C2)([N+](=O)[O-])CCC1(C)O (centres undefined) | NO
CS(=O)(=O)OCCN(CCOS(C)(=O)=O)c1ccc(C=Nc2ccc3ccccc3c2)c(Cl)c1 | NO
S=c1sc2nc(Cl)nc(Cl)c2s1 | YES
C/C(=N/NC(N)=O)c1ccc(Cl)s1 | NO
Nc1c2c(=O)[nH]c(=O)c2c(N)c2c(=O)c3ccccc3c(=O)c12 | YES
CCOc1c(N=Nc2ccccc2OC)c(-c2ccccc2)nn1C(N)=S | NO

Now let's try a different one.
Req: Test call, this compound: `CCOc1ccccc1NC1=C(Cl)C(=O)c2ccccc2C1=O`
Resp: YES

---

# METHOD: NCI Yeast Anticancer Drug Screen. Data for the mec2-1 strain (AID 157)
# CONDITION_SUMMARY: S. cerevisiae mec2-1 strain, at 50.0 µM (retest, dose inferred, filed as 5.0), stronger effect = higher value
This is part of a sample that, as a whole, favours compounds with a hit. Of some 79,000 tested, about 15% had one in any assay.
Known growth inhibition of a selection of compounds
Return type: number; implicit unit %.

Solved entries (count: 2):
C=C1C(O)C2(O)OCC34C(CC5C(C)=CC(=O)C(O)C5(C)C23)OC(=O)C(OC(=O)C/C=C/CCCCCCCC)C14 (centres undefined) | 99
Nc1cc(Cl)c2c(c1)Cc1ccccc1-2 | 95

Req: Specify reported growth inhibition for the compound shown: Cc1ccc(S(=O)(=O)OC2C(C)OCOC(C)C2OS(=O)(=O)c2ccc(C)cc2)cc1 (centres undefined)
Resp: -1

Req: Specify reported growth inhibition for the compound shown: `CN(C)CC/C(=N\Nc1ccc([N+](=O)[O-])cc1)c1ccccc1`
Resp: 86

---

# METHOD: NCI Yeast Anticancer Drug Screen. Data for the rad50 strain (AID 155);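 further: 0% = growth of vehicle-only cultures of the same strain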
# CONDITION_SUMMARY: S. cerevisiae rad50 strain growth inhibition; at 5.0 µM (retest, dose inferred, filed as 0.5)
Compounds without any hit were thinned out: in the full panel of roughly 79,000, 15% have a hit. The source made the active and inactive calls. No stated cut-off is given here; in the data, active means growth inhibition above about 70%; inactive means the rest.
Tick one outcome: active, inactive

O=C(/C=C/c1cccc2ccccc12)c1cccc([N+](=O)[O-])c1 | inactive

Req: Test call, this compound: `Cn1c(=S)c2[nH]c(SC3CCCCC3)nc2n(C)c1=O`
Resp: inactive

Req: Test call, this compound: CC(C)C1=C(O)C2=C(C(=O)C1=O)C1(C)CCCC(C)(C)C1C(O)C2OC=O (stereo unspecified)
Resp: active

Req: Test call, this compound: `CC(=O)Oc1cc(OC(C)=O)c2cc(Br)ccc2c1OC(C)=O`
Resp: inactive

Req: Test call, this compound: `CCOc1cnn(-c2ccccc2)c(=O)c1SCc1ccc(Cl)c(Cl)c1`
Resp: inactive

Req: Test call, this compound: `Fc1ccc(NC(=S)SCc2ccccc2)cc1F`
Resp: inactive

Req: Test call, this compound: `O=C(Nc1ccc(F)c(Cl)c1)Oc1ccc(Br)cc1Br`
Resp: inactive

Req: Test call, this compound: `COC(=O)c1cc(-c2c[nH]cc2C(=O)OCc2ccccc2)cn1S(=O)(=O)c1ccc(C)cc1`
Resp: inactive

Req: Test call, this compound: `CCCCCCCCCCCCCCCCP(=O)([O-])OCC[N+](C)(C)C`
Resp: inactive

Req: Test call, this compound: `Cc1c(C(C)(C)C)cc(C(C)(C)C)c(O)c1CN(C)Cc1c(C)c(C(C)(C)C)cc(C(C)(C)C)c1O`
Resp: inactive

Req: Test call, this compound: CCCCCCCCCCCCCCCCCC[n+]1ccc(C(C)CC)cc1 (stereo unspecified)
Resp: inactive

Req: Test call, this compound: `O=C1C(=O)N(c2ccc(Cl)c(Cl)c2)C(=O)C(=O)C1c1nc2ccccc2o1`
Resp: inactive

---

# METHOD: NCI Yeast Anticancer Drug Screen. Data for the mlh1 rad18 strain (AID 175)
# CONDITION_SUMMARY: S. cerevisiae mlh1 rad18 strain growth inhibition; at 5.0 µM (retest, dose inferred, filed as 0.5); stronger effect = higher value
Compounds without any hit were thinned out: in the full panel of roughly 79,000, 15% have a hit.
Known growth inhibition of a selection of molecules
Return type: number; implicit unit %.

NS(=O)(=O)c1ccc(-n2cccc2)cc1 | -2
CCNC(=S)N/N=C(/C)c1cccc(/C(C)=N\NC(=S)NCC)n1 | 12
N#CC#Cc1cccc(C#CC#N)c1 | 99
N#CNc1nc(N)c(-c2ccc(Cl)cc2)c(C(=O)Nc2ccc(Cl)c(Cl)c2)n1 | -1
CCc1c(O)c(O)c(C(C)=O)c2c(O)c(-c3c(C)cc4c(CC)c(O)c(O)c(C(C)=O)c4c3O)c(C)cc12 | 7
COS(=O)c1cc(Cl)cc(Cl)c1OC(=O)CSSCC(=O)Oc1c(Cl)cc(Cl)cc1S(=O)OC (stereo not given) | 84
O=C(Cc1ccccc1)OC(C(=O)c1ccccc1)c1ccccc1 (stereo not given) | 4
CC(=O)SC(C[N+](=O)[O-])c1ccc2c(c1)OCO2 (stereo not given) | 59
O=Cc1ccc2ccc3ccccc3c2c1 | -7
O=Cc1nc2c3cccnc3ccc2n1Cc1ccccc1 | 8

Req: Specify reported growth inhibition for the molecule shown: `Cn1c(=O)cc2c3c(ccc(C(=O)O)c31)C(=O)c1ccccc1-2`
Resp: 12

Req: Specify reported growth inhibition for the molecule shown: `CCN(CC)CCNc1ccc(C)c2oc3ccc(O)cc3c(=O)c12`
Resp: -1

Req: Specify reported growth inhibition for the molecule shown: `CCCN(CCC)C(=S)N/N=C/c1cccc(C)n1`
Resp: -8

Req: Specify reported growth inhibition for the molecule shown: `COC(=O)c1ccccc1C=C(c1ccc([N+](=O)[O-])cc1)c1ccc([N+](=O)[O-])cc1`
Resp: 28

Req: Specify reported growth inhibition for the molecule shown: `Cc1cc2c(c([N+](=O)[O-])c1C)C(=O)C(Br)=C(N)C2=O`
Resp: 93

---

# METHOD: NCI Yeast Anticancer Drug Screen. Data for the cln2 rad14 strain (AID 165);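 further: 0% = growth equal to vehicle treated cultures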
# CONDITION_SUMMARY: S. cerevisiae cln2 rad14 strain, at 50.0 µM (retest, dose inferred, filed as 5.0)
This is part of a sample that, as a whole, favours compounds with a hit. Of some 79,000 tested, about 15% had one in any assay. Activity calls are given as the source filed them. No stated cut-off is given here; in the data, active means growth inhibition above about 70%; inactive means the rest.
Tick one outcome: Y for active, N for inactive

These solved cases illustrate the format of a correct answer.
CC(=O)Nc1cc(F)c2c(c1)Cc1ccccc1-2 | Y
CCc1nc(N)nc(N)c1-c1ccc(NCCCCCCCCCCCCN)c([N+](=O)[O-])c1 | Y
O=C(N/C(=C\c1ccc(/C=C(\NC(=O)c2ccccc2)c2nc3ccccc3s2)cc1)c1nc2ccccc2s1)c1ccccc1 | N

Req: Test call, this compound: `C[n+]1c(-c2cccc(OCCCCCCCCCCOc3cccc(-c4c5cc(N)ccc5c5ccc(N)cc5[n+]4C)c3)c2)c2cc(N)ccc2c2ccc(N)cc21`
Resp: Y

Req: Test call, this compound: Clc1ccc(C2=C(c3ccccc3)C(c3ccc(Cl)cc3)N3C(=N[C@H]4CCCC[C@@H]43)N2)cc1 (some centres undefined)
Resp: N

Req: Test call, this compound: CC(C)=C1C=C2CCC3C(C)(C(=O)O)CCCC3(C)C2CC1 (centres undefined) (tested in a mixture with another compound)
Resp: N

Req: Test call, this compound: `COc1ccc2c(c1)N=C(N)n1c(nc3ccccc31)S2`
Resp: N

Req: Test call, this compound: `COc1ccc(-c2nc3c(C(=O)NCCN(C)C)cccc3c3ccccc23)cc1`
Resp: N

Req: Test call, this compound: `Cc1occc1C(=S)Nc1ccc(Cl)c(/C=N/OC(C)C)c1`
Resp: Y

Entry source: PubChem BioAssay (NCI)
